SYSTEM: hMMP8 (APMA-activated pro-MMP8) (Homo sapiens, UniProt P22894)
Sequence (P22894 101-467): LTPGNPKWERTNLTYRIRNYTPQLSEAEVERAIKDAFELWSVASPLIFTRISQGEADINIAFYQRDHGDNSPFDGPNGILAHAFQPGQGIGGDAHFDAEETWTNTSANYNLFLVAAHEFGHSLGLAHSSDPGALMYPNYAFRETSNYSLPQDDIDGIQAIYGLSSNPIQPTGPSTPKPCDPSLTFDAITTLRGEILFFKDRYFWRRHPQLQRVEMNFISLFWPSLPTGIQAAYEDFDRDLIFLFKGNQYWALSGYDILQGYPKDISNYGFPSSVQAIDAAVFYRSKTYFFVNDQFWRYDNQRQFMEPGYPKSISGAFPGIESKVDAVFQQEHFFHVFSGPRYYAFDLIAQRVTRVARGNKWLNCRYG
EXPERIMENT_SUMMARY: MMP8 isolated enzyme assay (fluorogenic substrate)
CONDITION_SET: 90 min, 35° C.
Experimental: Purified pro-MMP8 is purchased from Calbiochem. The enzyme (at 10 μg/ml) is activated by p-amino-phenyl-mercuric acetate (APMA) at 1 mM for 2.5 h, 35° C. […] Activity is determined by measuring the fluorescence at λex 320 nm and λem 405 nm. Percent inhibition is calculated as follows: % Inhibition is equal to the [Fluorescenceplus inhibitor−Fluorescencebackground] divided by the [Fluorescenceminus inhibitor−Fluorescencebackground]. […]
VALUE_KIND: pIC50
Expect pIC50 as a plain number equal to -log10 of the molar concentration.

Solved cases (2 shown):
COMPOUND: C[C@]1(CS(=O)(=O)N2CCc3cc(-c4ccc(C5CC5)nc4)ncc3C2)NC(=O)NC1=O
SYSTEM: hMMP8 (APMA-activated pro-MMP8) (Homo sapiens, UniProt P22894)
MEASURED_NUMBER: 5.61
//
COMPOUND: C[C@]1(CS(=O)(=O)N2CCc3cc(-c4cnc(C5CC5)nc4)ccc3C2)NC(=O)NC1=O
SYSTEM: hMMP8 (APMA-activated pro-MMP8) (Homo sapiens, UniProt P22894)
MEASURED_NUMBER: 5.52

Consider now this further compound.
(Q) GET pIC50 where system = hMMP8 (APMA-activated pro-MMP8) (Homo sapiens, UniProt P22894) and item = `CC[C@]1(CS(=O)(=O)N2CCc3cc(-c4cnc(C5CC5)nc4)ccc3C2)NC(=O)NC1=O`
(A) 5.88
